compounds and their reported growth inhibition
Test: NCI Yeast Anticancer Drug Screen. Data for the bub3 strain (AID 167)
Settings: S. cerevisiae bub3 mutant strain, at 50.0 µM, active compounds read high
About 79,000 compounds went through this panel and 15% of them were active in at least one assay; those are over-represented in the sample as a whole. Calls of active or inactive are those of the source. Cut-off read from the data, not from the text of the source: active = growth inhibition above about 70%; inactive = the rest.

[
  {
    "Compound": "CCOC(=O)/C=C\\SCCC(=O)O",
    "Measured": "27.1% (inactive)"
  },
  {
    "Compound": "Cc1cc(=O)n2ccnc2[nH]1",
    "Measured": "9.65% (inactive)"
  }
]

Consider the compound `O=C(O)c1cnc2cc3c(cc2c1Nc1cccc(Cl)c1)OCO3` and give its recorded growth inhibition.
-8.6% (inactive)

Consider the compound `C=CN1C(=O)c2ccccc2C1=O` and give its recorded growth inhibition.
-6.5% (inactive)

Consider the compound `CCOC(=O)[C@H]1CSC[C@@H](C(=O)OC)N1` and give its recorded growth inhibition.
5.15% (inactive)

Consider the compound `COc1cc(-c2ccc([NH2+][B-](F)(F)F)c(OC)c2)ccc1[NH2+][B-](F)(F)F` and give its recorded growth inhibition.
9.1% (inactive)

Consider the compound `O=C(O)CSCc1cc2c(O)c(c1)Cc1cc(CSCC(=O)O)cc(c1O)Cc1cc(CSCC(=O)O)cc(c1O)Cc1cc(CSCC(=O)O)cc(c1O)C2` and give its recorded growth inhibition.
43.8% (inactive)

Consider the compound COc1ccc(NC(=O)Oc2ccc3c(C)cc(=O)oc3c2)c(OC)c1 (tested in a mixture with another compound) and give its recorded growth inhibition.
1.8% (inactive)

Consider the compound COc1ccc(C2CC(c3cc(C)ccc3O)=NC(N)=N2)cc1 (configuration not stated) and give its recorded growth inhibition.
13.4% (inactive)

Consider the compound `COc1ccc(C(=O)/C(Br)=C\C(=O)O)cc1` and give its recorded growth inhibition.
23.9% (inactive)

Consider the compound `CCN(CC)CCOC(=O)c1c2nc3c(C(=O)OCCN(CC)CC)ccc(C)c3oc-2c(C)c(=O)c1N` and give its recorded growth inhibition.
61.9% (inactive)

Consider the compound Cc1cnc(Cl)[nH]1 (tested in a mixture with another compound) and give its recorded growth inhibition.
14.8% (inactive)

Consider the compound COc1cccc2c1OCC1Cc3ccccc3OC21 (configuration not stated) and give its recorded growth inhibition.
51.8% (inactive)

Consider the compound `Cc1nc(N)c(N2CCN(S(=O)(=O)N(Cc3ccccc3)Cc3ccccc3)CC2)c(=O)[nH]1` and give its recorded growth inhibition.
14.9% (inactive)

Consider the compound O=C1NC(c2ccco2)N2C(=O)NC(c3ccco3)N12 (configuration not stated) and give its recorded growth inhibition.
18.6% (inactive)

Consider the compound COc1ccc2nccc(C(=O)CCC3CCN(C(=O)c4ccc([N+](=O)[O-])cc4)CC3C(CBr)CCBr)c2c1 (configuration not stated) and give its recorded growth inhibition.
6.2% (inactive)

Consider the compound O=S1(=O)NC2CCC3NS(=O)(=O)NC4CCC(N1)N4S(=O)(=O)N23 (configuration not stated) and give its recorded growth inhibition.
-0.55% (inactive)

Consider the compound Cc1ccc(S(=O)(=O)NC(Cc2ccc(O)cc2)C(=O)O)cc1 (configuration not stated) and give its recorded growth inhibition.
12.6% (inactive)

Consider the compound O=C1CCC([N+](=O)[O-])C(c2ccccc2Cl)N1 (configuration not stated) and give its recorded growth inhibition.
29.7% (inactive)

Consider the compound `ClCc1ccc(-c2ccccc2)cc1` and give its recorded growth inhibition.
8.7% (inactive)

Consider the compound `COc1cccc(NC(N)=O)c1` and give its recorded growth inhibition.
-10.1% (inactive)

Consider the compound `CN(C)C1=NC(c2ccccc2)(c2ccccc2)C(=O)N1` and give its recorded growth inhibition.
-6.35% (inactive)
